# assay.target: PRMT5 (Homo sapiens)
# Construct: purchased Viva (custom protein)
# Sequence (O14744 whole entry): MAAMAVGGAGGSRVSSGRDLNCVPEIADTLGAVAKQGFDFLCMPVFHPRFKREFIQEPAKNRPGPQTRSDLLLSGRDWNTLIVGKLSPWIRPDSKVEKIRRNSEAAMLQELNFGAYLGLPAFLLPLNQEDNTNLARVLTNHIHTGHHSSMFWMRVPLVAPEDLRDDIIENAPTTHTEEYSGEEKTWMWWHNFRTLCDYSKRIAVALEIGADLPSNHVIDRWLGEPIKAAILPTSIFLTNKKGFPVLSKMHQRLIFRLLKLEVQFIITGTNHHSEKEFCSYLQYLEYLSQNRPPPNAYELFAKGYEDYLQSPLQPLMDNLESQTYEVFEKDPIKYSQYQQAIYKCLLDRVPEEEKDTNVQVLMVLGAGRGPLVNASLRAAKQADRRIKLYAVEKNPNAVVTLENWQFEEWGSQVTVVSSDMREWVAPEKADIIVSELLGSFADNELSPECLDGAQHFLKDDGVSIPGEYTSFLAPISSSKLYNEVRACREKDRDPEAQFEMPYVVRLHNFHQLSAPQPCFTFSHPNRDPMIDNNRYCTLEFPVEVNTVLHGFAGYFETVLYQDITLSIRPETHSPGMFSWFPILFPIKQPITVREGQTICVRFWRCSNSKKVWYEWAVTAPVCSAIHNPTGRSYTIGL
# Sequence (Q9BQA1 whole entry partner): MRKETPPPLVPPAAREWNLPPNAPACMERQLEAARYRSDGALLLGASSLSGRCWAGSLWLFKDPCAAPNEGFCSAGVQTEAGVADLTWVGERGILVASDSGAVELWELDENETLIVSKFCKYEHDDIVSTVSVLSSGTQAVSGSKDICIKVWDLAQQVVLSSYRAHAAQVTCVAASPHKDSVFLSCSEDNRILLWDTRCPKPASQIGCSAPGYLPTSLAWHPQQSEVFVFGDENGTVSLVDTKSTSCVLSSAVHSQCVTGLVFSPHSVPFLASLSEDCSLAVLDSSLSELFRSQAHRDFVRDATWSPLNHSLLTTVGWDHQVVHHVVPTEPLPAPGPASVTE
# method: PRMT5 biochemical IC50 assay with SAM as cofactor
# run.conditions: PRMT5, SAM as cofactor; read-out: SAM IC50
quantity.name: IC50

>  <molecule>
Cc1cc(NC(=O)C(=O)N2C[C@H](C)CC[C@H]2c2ccc3c(c2)CCNC3=O)cnc1N (single isomer, unassigned) [Compound 994]

>  <IC50>
> 500 nM

$$$$
>  <molecule>
C[C@H]1CC[C@H](c2ccc3cncn3c2)N(C(=O)C(=O)Nc2cnc(N)c(C3CC3)c2)C1 (single isomer, unassigned) [Compound 1205]

>  <IC50>
< 50 nM

$$$$

Query: # IC50 lookup, item C[C@@H]1CC[C@H](c2ccnn2C)N(C(=O)C(=O)Nc2cncc(C(N)=O)c2)C1 (racemic) [Compound 72]
Response: 50 to 500 nM
